assayed_target: UniProt P11597
Sequence (P11597 18-493): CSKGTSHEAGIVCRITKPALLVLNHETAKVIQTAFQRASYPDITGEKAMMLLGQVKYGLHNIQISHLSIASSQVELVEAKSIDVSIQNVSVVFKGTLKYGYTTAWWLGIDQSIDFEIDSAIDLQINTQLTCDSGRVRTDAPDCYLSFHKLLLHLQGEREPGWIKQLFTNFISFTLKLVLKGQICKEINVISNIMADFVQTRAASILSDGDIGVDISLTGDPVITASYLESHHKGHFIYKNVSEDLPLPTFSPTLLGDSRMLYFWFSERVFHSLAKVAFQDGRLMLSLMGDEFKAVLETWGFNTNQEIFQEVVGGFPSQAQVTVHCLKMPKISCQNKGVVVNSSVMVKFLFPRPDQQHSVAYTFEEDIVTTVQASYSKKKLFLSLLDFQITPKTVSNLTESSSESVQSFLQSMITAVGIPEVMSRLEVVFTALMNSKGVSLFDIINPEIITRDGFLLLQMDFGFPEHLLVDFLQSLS
test_description: Inhibitory activity against CETP in human plasma (Roar CETP activity kit, fluorescence)
assay_setup: plasma from healthy men diluted 1:10 in assay buffer, 37° C., 3 hrs, fluorescence 465/535 nm; read-out: IC50, Inhibition of CETP Activity in Human Plasma
Method: A CETP activity kit (#RB-CETP) was purchased from Roar […], Inc. A donor and an acceptor (each, 4 ul), a 10× assay buffer (177 ul), and each of dilutions of test compounds in dimethylsulfoxide (DMSO, Sigma-Aldrich) (0.01 nM˜10000 nM) were added to each well of black round-bottom 96-well plates (Corning #3792). […] After removal of the sealing film, fluorescence was read on Spectra Max Gemini EM (Molecular devices) with an excitation wavelength of 465 nm and an emission wavelength of 535 nm. […]
measure: IC50 (nM)
Provide the reading as a plain figure in nM.

Enquiry: Give the measured IC50 of CCN(c1ncc(-c2cccn2C)cc1CN1C(=O)O[C@H](c2cc(C(F)(F)F)cc(C(F)(F)F)c2)[C@@H]1C)C1CCOCC1 [Example 50] .
Return: 11.1

Enquiry: Any idea what its IC50 is? The compound is CCN(c1ncc(C(F)(F)F)cc1CN1C(=O)O[C@H](c2cc(C(F)(F)F)cc(C(F)(F)F)c2)[C@@H]1C)C1CCCCC1 [Example 53]
Return: 5.2

Enquiry: Given the entry CCN(CC1CCC(CC(=O)O)CC1)c1ncc(-c2cc(C)nn2C)nc1CN1C(=O)OC(c2cc(C(F)(F)F)cc(C(F)(F)F)c2)C1C (stereo not drawn) [Example 107] , report its measured IC50.
Return: 37
